- System: Tov112D
- experimental.protocol: Primary qHTS to identify gynecologic anti-cancer compounds using libraries of approved drugs and bioactive compounds (AID 1345084); further: nearly all actives have a fitted effect of over 55% in size
- test.conditions: Gynecologic cancer cell panel viability, ATPlite luminescence, 48 h; series mostly up to 57.5 µM
Records with an inconclusive call do not appear. Calls of active or inactive are those of the source. The call rests on the fitted dose curve; in most records, active means well fitted cell-killing curve with a large enough effect; inconclusive means small, poorly fitted or top-dose-only effect, or effect the other way; inactive means flat fitted curve, though single readings scatter.
Hello, when you answer, please use one of the following outcomes: 1.0 for active, 0.0 for inactive

- molecule: "O=C(CCN1CCN(C(=O)OCc2cc(Cl)cc(Cl)c2)CC1)c1ccc2[nH]c(=O)oc2c1"
  assigned.category: 0.0

Data request: Hi team, can someone confirm the assay call for NCCS ?
Data returned: 0.0

Data request: Hi team, can someone confirm the assay call for Cc1ccccc1C(C(=O)NC1CCCCC1)N(C(=O)Cn1ccnc1C)c1cccc(F)c1 (stereo unspecified) ?
Data returned: 0.0

Data request: Hi team, can someone confirm the assay call for CC(C)[C@H](CO)Nc1nc(Nc2ccc(C(=O)O)c(Cl)c2)c2ncn(C(C)C)c2n1 ?
Data returned: 0.0

Data request: Hi team, can someone confirm the assay call for COc1ccc(Cc2ccc(NC(N)=O)cc2)cc1-c1cccc(Cl)c1 ?
Data returned: 0.0

Data request: Hi team, can someone confirm the assay call for NC(=O)c1cccc2[nH]c(-c3ccc([C@H]4CCCN4)cc3F)nc12 ?
Data returned: 1.0

---

- experimental.protocol: qHTS profiling of the MIPE4 collection as inhibitors of Plasmodium falciparum (DD2) proliferation (AID 743345)
- test.conditions: P. falciparum Dd2 in erythrocytes, SYBR Green DNA, 72 h; at 28.5 µM (top of the series) unless noted
Let's look at some compounds and their measured parasite growth remaining, % of DMSO control (lower = more inhibition).
Give just the numeric value; % need not be written.

- compound: "COc1cccc(-c2cc(=O)c3ccccc3o2)c1N"
  readout.value: 91.1
- compound: "CO[C@H]1C=CC=C(C)C(=O)NC2=CC(=O)C(NCCN(C)C)=C(C[C@@H](C)C[C@H](OC)[C@@H](O)[C@@H](C)C=C(C)[C@@H]1OC(N)=O)C2=O"
  readout.value: 6.82
- compound: "COc1cccc2c1CCCC2CCCN1CCN(C2CCCCC2)CC1 (stereo not given)"
  readout.value: 54.8
- compound: "COc1cc(Nc2ncc(F)c(Nc3ccc4c(n3)NC(=O)C(C)(C)O4)n2)cc(OC)c1OC"
  readout.value: 7

Here's the next entry for you.
Field parasite growth remaining, % of DMSO control (lower = more inhibition) (entry O=c1cc(-c2cccc3c2Sc2ccccc2S3)oc(N2CCOCC2)c1 ) reads 90.2

---

- experimental.protocol: Quantitative High-Throughput drug screen in 47 multiple myeloma cell lines against the NCATS MIPE library collection: KHM11_PLB cell viability assay (AID 1918962); further: nearly all actives have a fitted effect of over 35% in size
- test.conditions: KHM11 myeloma cell viability, CellTiter-Glo ATP luminescence, 48 h; series mostly up to 45.8 µM
Inconclusive results are not listed. The source made the active and inactive calls. Calls come from the whole dose curve; as a rule, active = well fitted cell-killing curve with a large enough effect; inconclusive = small, poorly fitted or top-dose-only effect, or effect the other way; inactive = no such curve, though single readings can be large or run the other way.
Hello, when you answer, please use one of the following outcomes: active, inactive

Take a look at these entries with their results.
- compound: "C[C@]12CC[C@@H]3c4ccc(O)cc4C[C@@H](CCCCCCCCCS(=O)CCCC(F)(F)C(F)(F)F)[C@H]3[C@H]1CC[C@H]2O (some centres not stated)"
  assigned.category: "inactive"
- compound: "Clc1ccc(-c2nc3sccn3c2C=NOCc2ccc(Cl)c(Cl)c2)cc1"
  assigned.category: "inactive"
- compound: "CC(C)OC(=O)C(C)(C)Oc1ccc(C(=O)c2ccc(Cl)cc2)cc1"
  assigned.category: "active"
- compound: "COc1ccc(-c2cc(=O)c3c(O)cc(O)cc3o2)cc1O"
  assigned.category: "active"
- compound: "CO[C@H]1C=CC=C(C)C(=O)NC2=CC(=O)C(NCCN(C)C)=C(C[C@@H](C)C[C@H](OC)[C@@H](O)[C@@H](C)C=C(C)[C@@H]1OC(N)=O)C2=O"
  assigned.category: "active"
- compound: "CN1CCN(CCOc2cc(OC3CCOCC3)c3c(Nc4c(Cl)ccc5c4OCO5)ncnc3c2)CC1"
  assigned.category: "active"

Data request: Hi team, can someone confirm the assay call for NC[C@@H]1O[C@@H](O[C@H]2[C@@H](O)[C@H](O[C@@H]3[C@@H](O)[C@@H](N)C[C@H](N)[C@H]3O[C@H]3O[C@H](CN)[C@@H](O)[C@@H](O)[C@H]3N)O[C@H]2CO)[C@H](N)[C@@H](O)[C@@H]1O ?
Data returned: inactive
